Give measured pIC50 for each item. Keep answers brief.
Biological target: murine RIP1 (Mus musculus, UniProt Q60855)
Construct: U937 and L929 cells were obtained from the American Type Culture Collection; host or cells: L929
Sequence (Q60855 whole entry): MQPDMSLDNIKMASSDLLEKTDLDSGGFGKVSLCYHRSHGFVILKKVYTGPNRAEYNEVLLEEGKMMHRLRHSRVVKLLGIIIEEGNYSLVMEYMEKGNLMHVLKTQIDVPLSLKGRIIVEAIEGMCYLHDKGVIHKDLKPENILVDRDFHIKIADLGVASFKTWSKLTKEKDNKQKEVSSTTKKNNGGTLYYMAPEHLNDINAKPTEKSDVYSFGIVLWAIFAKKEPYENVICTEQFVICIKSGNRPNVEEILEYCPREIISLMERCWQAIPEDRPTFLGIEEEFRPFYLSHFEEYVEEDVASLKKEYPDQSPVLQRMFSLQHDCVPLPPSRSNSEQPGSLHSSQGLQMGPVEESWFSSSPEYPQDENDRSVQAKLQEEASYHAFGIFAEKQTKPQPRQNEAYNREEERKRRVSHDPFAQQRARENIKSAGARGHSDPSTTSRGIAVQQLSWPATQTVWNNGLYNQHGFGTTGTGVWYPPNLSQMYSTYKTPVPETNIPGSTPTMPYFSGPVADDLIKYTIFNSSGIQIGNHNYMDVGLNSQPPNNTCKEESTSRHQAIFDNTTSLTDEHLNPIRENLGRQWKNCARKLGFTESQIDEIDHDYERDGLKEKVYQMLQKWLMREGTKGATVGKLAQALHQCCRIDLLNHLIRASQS
Assay: L929 cell necroptosis assay (TNFa + zVAD, CellTiter-Glo)
Type: cell-based
Experimental: In this example, U937 and L929 cells were exposed to compounds of the present disclosure and a cell necroptosis assay was conducted to evaluate the compounds' activity against human RIP1 and murine RIP1. U937 and L929 cells were obtained from the American Type Culture Collection (Manassa, Va., USA). […] Each compound of the present disclosure evaluated in this example was serially diluted in DMSO from 2.5 mM in 4-fold dilutions, and then diluted 1:125 in complete medium. […]
pIC50 is a log-scale quantity: -log10 of the concentration expressed in molar.

Record lookup: for murine RIP1 (Mus musculus, UniProt Q60855), what pIC50 belongs to CN1C(=O)[C@@H](NC(=O)c2cc(Oc3ccccc3)ccn2)CCc2ccc(C#CC3(O)COC3)cc21 ?
8.09

Request body: readout pIC50, system murine RIP1 (Mus musculus, UniProt Q60855), query CN1C(=O)C(NC(=O)c2cc(Oc3ccccc3)ccn2)CCc2ccc(N3CC4(CCOCC4)C3)cc21 (racemic) . Return the value.
5.77

Identify the measured pIC50 of CN1C(=O)C(NC(=O)c2cc(Oc3ccccc3)ccn2)CCc2ccc(N3CCC4(CCOCC4)CC3)cc21 (racemic) for murine RIP1 (Mus musculus, UniProt Q60855).
6.19

Can you look up pIC50 on murine RIP1 (Mus musculus, UniProt Q60855) for CN1C(=O)[C@@H](NC(=O)n2cc(Cc3ccc(F)cc3)cn2)CCc2ccc(C#CC3(O)CCOCC3)cc21 ?
8.23

pIC50 of CN1C(=O)[C@@H](NC(=O)c2ccn(Cc3ccccc3)n2)CCc2ccc(C#CC(C)(C)C)cc21 on murine RIP1 (Mus musculus, UniProt Q60855)?
7.52

Provide the documented pIC50 with murine RIP1 (Mus musculus, UniProt Q60855) as the system for CN1C(=O)C(NC(=O)c2ncn(Cc3c(Cl)cccc3Cl)n2)CCc2ccc(CN3CCN(c4ccncc4)CC3)cc21 (racemic)
5.60

Lookup: pIC50 / murine RIP1 (Mus musculus, UniProt Q60855) / CN1C(=O)C(NC(=O)c2cc(Oc3ccccc3)ccn2)CCc2ccc(N3CC4(CCCCC4)C3)cc21 (racemic)
5.93

This collection of values is drawn from patent US20210070735A1.
